Biological target: T1, NHERF3_4, Q5T2W1
T1 sequence (Q5T2W1 373-468, limits assumed, looked up): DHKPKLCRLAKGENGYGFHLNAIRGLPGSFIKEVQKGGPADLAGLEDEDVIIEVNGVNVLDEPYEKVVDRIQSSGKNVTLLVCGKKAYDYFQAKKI
Assay: holdup assay
Parameters: key: below the threshold = too weak to quantify, mostly under pKd 3.1 to 4
Conditions: plain residues with an end cap or a label only (N-terminal biotin on a linker: ado-ado)
observation type: pKd

PTPDLPQTRV [KLHDC7A, Q5VTJ3] :: below the threshold
NNNVVKVDSV [MTNR1A, P48039] :: below the threshold
GIKKITSTAL [RPS6KA3, P51812] :: 5.4
DPAESMESLV [PTPRG, P23470] :: below the threshold
EDPRVEVTQF [SLC22A9, Q8IVM8] :: 4.58

## Task So what's the measured pKd for this one? APIAGFSSFV [SDK2, Q58EX2]
## Result below the threshold

## Task Returns the measured pKd for the input binder. Input: SRSVVESDEL [MYPN, Q86TC9]
## Result below the threshold

## Task For the binder KKMLQRRTLL [OR8G1, Q15617] , what pKd is on record?
## Result 4.64

## Task Please give the measured pKd for this binder: VLYPREGTEV [FOXI1, Q12951]
## Result below the threshold

## Task What pKd value was documented for this binder, QRPYRRGSEI [KCNJ18, B7U540] ?
## Result below the threshold
